# assayed.target: Estrogen receptor beta (Homo sapiens) (UniProt Q92731)
# Sequence (Q92731 whole entry, looked up): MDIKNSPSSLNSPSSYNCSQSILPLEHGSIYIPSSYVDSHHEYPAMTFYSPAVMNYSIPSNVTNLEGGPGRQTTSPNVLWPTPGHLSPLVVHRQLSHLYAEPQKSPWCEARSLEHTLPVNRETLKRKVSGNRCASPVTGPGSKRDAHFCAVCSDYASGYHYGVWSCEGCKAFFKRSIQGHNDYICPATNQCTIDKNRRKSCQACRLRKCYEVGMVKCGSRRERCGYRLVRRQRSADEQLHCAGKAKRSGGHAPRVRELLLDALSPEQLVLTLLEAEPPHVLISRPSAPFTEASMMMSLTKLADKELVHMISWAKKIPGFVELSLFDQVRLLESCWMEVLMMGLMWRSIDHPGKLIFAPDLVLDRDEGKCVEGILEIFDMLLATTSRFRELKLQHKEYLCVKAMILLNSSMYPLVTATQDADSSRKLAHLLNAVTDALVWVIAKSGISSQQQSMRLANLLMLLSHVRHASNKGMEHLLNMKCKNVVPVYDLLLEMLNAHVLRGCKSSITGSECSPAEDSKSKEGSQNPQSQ
# run.description: ERbeta binders displacing fluorescent estradiol, dose response, cell-based, Cos7 ERbeta-GFP, E2-Alexa633, flow cytometry (AID 1221)
# condition.context: E2-Alexa633 competitive binding, at 10 µM (top of the series)
The source made the active and inactive calls.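 How the source made its calls: active means summed score of at least 50 from binding left at 10 µM, EC50 band and curve drop size; inactive means the rest.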
measurement.label: percent ligand binding remaining

Examples with their reported percent ligand binding remaining follow.
| compound | assayed.target | data.value |
| --- | --- | --- |
| COc1cccc(NS(=O)(=O)c2ccc3c(c2)C2C=CCC2C(c2ccc(C(=O)O)cc2)N3)c1 (stereo unspecified) | Estrogen receptor beta (Homo sapiens) (UniProt Q92731) | inactive |
| C[C@H]1CCC[C@@H](O)CCC/C=C/c2cc(O)cc(O)c2C(=O)O1 | Estrogen receptor beta (Homo sapiens) (UniProt Q92731) | inactive |
| CC(=O)Nc1ccc(OC(=O)CC2SC(=O)NC2=O)cc1 (stereo unspecified) | Estrogen receptor beta (Homo sapiens) (UniProt Q92731) | inactive |
| Cc1nn(-c2ccccc2)c(/N=C/c2ccc(O)cc2)c1-c1ccccc1 | Estrogen receptor beta (Homo sapiens) (UniProt Q92731) | inactive |
| O=C1/C(=C\c2ccco2)SC(=S)N1c1ccc(O)cc1 | Estrogen receptor beta (Homo sapiens) (UniProt Q92731) | inactive |

Please look at the following compound next.
Result for COc1ccc(C(=O)N/N=C(\C)c2ccc3c(c2)C2C=CCC2C(c2ccccc2)N3)cc1 (stereo unspecified) , tested on Estrogen receptor beta (Homo sapiens) (UniProt Q92731), percent ligand binding remaining: 32.7%

----------
# assayed.target: Estrogen receptor beta (Homo sapiens)
# run.description: ERbeta binders displacing fluorescent estradiol, dose response, cell-based, Cos7 ERbeta-GFP, E2-Alexa633, flow cytometry (AID 1221)
# condition.context: E2-Alexa633 competitive binding, at 10 µM (top of the series)
Active and inactive are the calls of the source.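 How the source made its calls: active means summed score of at least 50 from binding left at 10 µM, EC50 band and curve drop size; inactive means the rest.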
measurement.label: percent ligand binding remaining

Examples from the recorded data:
| compound | measurement.label | data.value |
| --- | --- | --- |
| COc1cccc(C2Nc3c(F)cc(Br)cc3C3C=CCC32)c1OC (stereo not given) | percent ligand binding remaining | inactive |
| CC(=O)c1ccc2c(c1)C1C=CCC1C(c1ccc(S(=O)(=O)N3CCOCC3)cc1)N2 (stereo not given) | percent ligand binding remaining | inactive |
| CCc1nc2sc3ccccc3c(=O)c2c(=O)n1Cc1ccco1 | percent ligand binding remaining | inactive |
| CCC(=O)Oc1ccc(/C(CC)=C(\CC)c2ccc(OC(=O)CC)cc2)cc1 | percent ligand binding remaining | 32.1% |

percent ligand binding remaining measured on COc1ccc(/C=N/NC(=O)c2nc(-c3ccccc3)cc(-c3ccccc3)n2)cc1O = inactive

Value of percent ligand binding remaining reported for the compound COc1ccc(NC(=O)C(c2ccccc2)N(C)C(=O)c2ccc(=O)[nH]c2)cc1 (stereo not given) is inactive

For reference, reported percent ligand binding remaining for C/C=C(/C(=C/C)c1ccc(O)cc1)c1ccc(O)cc1 stands at 45.1%

Entry CCn1c(=NC(=O)c2ccc(N3C(=O)CCC3=O)cc2)sc2c(OC)ccc(OC)c21 — recorded percent ligand binding remaining = inactive

For CCCCCCNC(=O)c1cc(-c2ccco2)nc2ccccc12 the compound record lists percent ligand binding remaining as inactive

Short answer for Cn1ccnc1SCC(=O)Nc1ccc2nc(SCC(=O)NC3CC3)sc2c1 : percent ligand binding remaining was inactive
